B1: glmS ribozyme (parent)
chain: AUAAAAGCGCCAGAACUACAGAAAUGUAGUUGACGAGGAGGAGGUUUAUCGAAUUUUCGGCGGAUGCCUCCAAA

variants of: B1; experiment: self-cleavage kobs at 640 uM GlcN6P; higher = faster cleavage; RNA array; settings: with glucosamine-6-phosphate
Variants at the floor of the assay were thinned out.
endpoint: self-cleavage kobs at 640 uM GlcN6P

Some solved entries appear below for comparison.
>  <mutation_label>
G7U C16G G43U C67G

>  <self-cleavage kobs at 640 uM GlcN6P>
< 1e-05 s⁻¹

$$$$
>  <mutation_label>
A33U G44U A52U

>  <self-cleavage kobs at 640 uM GlcN6P>
< 1e-05 s⁻¹

$$$$
>  <mutation_label>
G38C G41U C67U

>  <self-cleavage kobs at 640 uM GlcN6P>
< 1e-05 s⁻¹

$$$$
>  <mutation_label>
G7U G32A G43A

>  <self-cleavage kobs at 640 uM GlcN6P>
< 1e-05 s⁻¹

$$$$
>  <mutation_label>
A6U G40C G44C C50U

>  <self-cleavage kobs at 640 uM GlcN6P>
< 1e-05 s⁻¹

$$$$
>  <mutation_label>
C11U C34U

>  <self-cleavage kobs at 640 uM GlcN6P>
< 1e-05 s⁻¹

$$$$
>  <mutation_label>
U30G G66U

>  <self-cleavage kobs at 640 uM GlcN6P>
8.02e-05 s⁻¹

$$$$
>  <mutation_label>
A12U C70G

>  <self-cleavage kobs at 640 uM GlcN6P>
0.000558 s⁻¹

$$$$

**Query** Find the recorded self-cleavage kobs at 640 uM GlcN6P belonging to G35U C71U and report it.
**Result** < 1e-05 s⁻¹

**Query** Find the recorded self-cleavage kobs at 640 uM GlcN6P belonging to C8A A53G and report it.
**Result** < 1e-05 s⁻¹

**Query** Find the recorded self-cleavage kobs at 640 uM GlcN6P belonging to U69C C71U and report it.
**Result** 0.000326 s⁻¹

**Query** Find the recorded self-cleavage kobs at 640 uM GlcN6P belonging to A15G U54A G62C U65A and report it.
**Result** < 1e-05 s⁻¹

**Query** Find the recorded self-cleavage kobs at 640 uM GlcN6P belonging to C8A A12U C67U and report it.
**Result** < 1e-05 s⁻¹

**Query** Find the recorded self-cleavage kobs at 640 uM GlcN6P belonging to G32C G43U and report it.
**Result** < 1e-05 s⁻¹

**Query** Find the recorded self-cleavage kobs at 640 uM GlcN6P belonging to G29U A36U A39G G60A and report it.
**Result** < 1e-05 s⁻¹

**Query** Find the recorded self-cleavage kobs at 640 uM GlcN6P belonging to C8G C58U G59C C61U C67G and report it.
**Result** < 1e-05 s⁻¹

**Query** Find the recorded self-cleavage kobs at 640 uM GlcN6P belonging to G9A A36C G41U A64G C70U and report it.
**Result** < 1e-05 s⁻¹

**Query** Find the recorded self-cleavage kobs at 640 uM GlcN6P belonging to G13C G29A G40C and report it.
**Result** < 1e-05 s⁻¹

**Query** Find the recorded self-cleavage kobs at 640 uM GlcN6P belonging to G7C G35A and report it.
**Result** < 1e-05 s⁻¹

**Query** Find the recorded self-cleavage kobs at 640 uM GlcN6P belonging to C8A G29A C50G G66A C70G and report it.
**Result** 4.95e-05 s⁻¹

Reference source for all entries: the supplement of paper PMC7125110
